Listed here: items and their measured combination Emax.
Test system: MDA-MB-468 (Breast Carcinoma)
testSummary: combination Emax (second highest fraction inhibited in the dose matrix, 72 h); higher = more inhibition; extreme values may be limits of the assay

// below: answered compounds
N#Cc1cnc(Nc2cc(NC[C@H]3CNCCO3)c(C(F)(F)F)cn2)cn1 [SRA737] + O=c1[nH]cc(F)c(=O)[nH]1 [5-Fluorouracil] (first compound max 10 µM, 7x7, partner max 20 µM); 0.344
CC(=O)Nc1cccc(-n2c(=O)n(C3CC3)c(=O)c3c(Nc4ccc(I)cc4F)n(C)c(=O)c(C)c32)c1 [Trametinib] + Cc1nc(-c2cn3c(n2)-c2ccc(-c4cnn(C(C)(C)C(N)=O)c4)cc2OCC3)n(C(C)C)n1 [Taselisib] (first compound max 1 µM, 7x7, partner max 10 µM); 0.799
Cc1cc2ncnn2cc1Nc1ncc2c(n1)n(C1CCOCC1)c(=O)n2C [AZD7648] + CCN(CCO)CCCOc1ccc2c(Nc3cc(CC(=O)Nc4cccc(F)c4)[nH]n3)ncnc2c1 [AZD2811] (first compound max 10 µM, 7x7, partner max 1 µM); 0.492

Reported combination Emax ( O=C(c1cc(Cc2n[nH]c(=O)c3ccccc23)ccc1F)N1CCN(C(=O)C2CC2)CC1 [Olaparib] + COc1nnc2ccc(N3CCC(c4ccc(OCCN5CCN(C)C(=O)[C@H]5C)cc4)CC3)nn12 [AZD5153] (first compound max 10 µM, 7x7, partner max 1 µM) ) = 0.503

###

System: HMV-II (Melanoma)
testSummary: Bliss excess, mean over the matrix (fraction); higher = more synergy
recordedMetric: Bliss excess

CCc1c2c(nc3ccc(O)cc13)-c1cc3c(c(=O)n1C2)COC(=O)[C@]3(O)CC [SN-38] + CN(C)CCCOc1ccc(-c2ccc3ncc4c(c3c2)n(C2CCOCC2)c(=O)n4C)cn1 [AZD0156] (first compound max 0.3 µM, 7x7, partner max 1 µM); -0.0108

# input for lookup
Data point: C[C@@H](Nc1cc(F)cc(F)c1)c1cc(C(=O)N(C)C)cc2c(=O)cc(N3CCOCC3)oc12 [AZD8186] + CC(=O)c1c(C)c2cnc(Nc3ccc(N4CCNCC4)cn3)nc2n(C2CCCC2)c1=O [Palbociclib] (first compound max 10 µM, 7x7, partner max 10 µM) ; Bliss excess = 0.0265

###

Test system: HARA (Squamous Cell Lung Carcinoma)
testSummary: combination Emax (second highest fraction inhibited in the dose matrix, 72 h); higher = more inhibition; extreme values may be limits of the assay
Measured combination Emax, listed per entry.
Hey, just send me the number, nothing else.

CN(CCO)CC[C@H](CSc1ccccc1)Nc1ccc(S(=O)(=O)NC(=O)c2ccc(N3CCC([C@@H](O)c4ccccc4-c4ccc(Cl)cc4)CC3)cc2)cc1S(=O)(=O)C(F)(F)F [AZD4320] + Nc1ccn([C@@H]2O[C@H](CO)[C@@H](O)C2(F)F)c(=O)n1 [Gemcitabine] (first compound max 1 µM, 7x7, partner max 0.3 µM); 0.8

Tested on HARA (Squamous Cell Lung Carcinoma): CCc1c2c(nc3ccc(O)cc13)-c1cc3c(c(=O)n1C2)COC(=O)[C@]3(O)CC [SN-38] + CN(C)CCCOc1ccc(-c2ccc3ncc4c(c3c2)n(C2CCOCC2)c(=O)n4C)cn1 [AZD0156] (first compound max 0.3 µM, 7x7, partner max 1 µM) . Observed combination Emax: 0.768

GET /values?item= CC1(C)CCC(CN2CCN(c3ccc(C(=O)NS(=O)(=O)c4ccc(NCC5CCOCC5)c([N+](=O)[O-])c4)c(Oc4cnc5[nH]ccc5c4)c3)CC2)=C(c2ccc(Cl)cc2)C1 [Venetoclax] + Cc1cc2ncnn2cc1Nc1ncc2c(n1)n(C1CCOCC1)c(=O)n2C [AZD7648] (first compound max 1 µM, 7x7, partner max 10 µM) &system= HARA (Squamous Cell Lung Carcinoma) returns combination Emax: 0.572

Reported combination Emax (HARA (Squamous Cell Lung Carcinoma)) for entry Cc1c2c(nn1C)CSCc1cc(n(C)n1)CSc1cc(c3ccccc3c1)OCCCc1c(C(=O)O)n(C)c3c-2c(Cl)ccc13 [AZD5991] + C=CCn1c(=O)c2cnc(Nc3ccc(N4CCN(C)CC4)cc3)nc2n1-c1cccc(C(C)(C)O)n1 [AZD1775] (first compound max 1 µM, partner max 1 µM) is 0.89

###

System: LU-139 (Small Cell Lung Carcinoma)
testSummary: Bliss excess, mean over the matrix (fraction); higher = more synergy
Listing: Bliss excess of selected compounds
Reply with just the number.

Below, each entry is followed by its recorded Bliss excess result.
CS(=O)(=O)CCNCc1ccc(-c2ccc3ncnc(Nc4ccc(OCc5cccc(F)c5)c(Cl)c4)c3c2)o1 [Lapatinib] + C[C@@H](Oc1cc(-c2cnn(C3CCNCC3)c2)cnc1N)c1c(Cl)ccc(F)c1Cl [Crizotinib] (first compound max 10 µM, 7x7, partner max 10 µM); -0.0147
CC1(C)CCC(CN2CCN(c3ccc(C(=O)NS(=O)(=O)c4ccc(NCC5CCOCC5)c([N+](=O)[O-])c4)c(Oc4cnc5[nH]ccc5c4)c3)CC2)=C(c2ccc(Cl)cc2)C1 [Venetoclax] + Cn1cnc2c(F)c(Nc3ccc(Br)cc3Cl)c(C(=O)NOCCO)cc21 [Selumetinib] (first compound max 1 µM, 7x7, partner max 3 µM); -0.0357
CC1(C)CCC(CN2CCN(c3ccc(C(=O)NS(=O)(=O)c4ccc(NCC5CCOCC5)c([N+](=O)[O-])c4)c(Oc4cnc5[nH]ccc5c4)c3)CC2)=C(c2ccc(Cl)cc2)C1 [Venetoclax] + C[C@@H]1COCCN1C2=NC(=NC(=C2)C3(CC3)[S@](=N)(=O)C)C4=C5C=CNC5=NC=C4 [AZD6738] (first compound max 1 µM, 7x7, partner max 10 µM); -0.0111
CN(CCO)CC[C@H](CSc1ccccc1)Nc1ccc(S(=O)(=O)NC(=O)c2ccc(N3CCC([C@@H](O)c4ccccc4-c4ccc(Cl)cc4)CC3)cc2)cc1S(=O)(=O)C(F)(F)F [AZD4320] + CC(=O)O[C@H]1C(=O)[C@@]2(C)[C@H]([C@H](OC(=O)c3ccccc3)[C@]3(O)C[C@H](OC(=O)[C@H](O)[C@@H](NC(=O)c4ccccc4)c4ccccc4)C(C)=C1C3(C)C)[C@]1(OC(C)=O)CO[C@@H]1C[C@@H]2O [Paclitaxel] (first compound max 1 µM, 7x7, partner max 3 µM); 0.0242
Cc1c2c(nn1C)CSCc1cc(n(C)n1)CSc1cc(c3ccccc3c1)OCCCc1c(C(=O)O)n(C)c3c-2c(Cl)ccc13 [AZD5991] + Cc1cc2ncnn2cc1Nc1ncc2c(n1)n(C1CCOCC1)c(=O)n2C [AZD7648] (first compound max 1 µM, 7x7, partner max 10 µM); -0.013
Cc1cc2ncnn2cc1Nc1ncc2c(n1)n(C1CCOCC1)c(=O)n2C [AZD7648] + C[C@@H]1COCCN1C2=NC(=NC(=C2)C3(CC3)[S@](=N)(=O)C)C4=C5C=CNC5=NC=C4 [AZD6738] (first compound max 10 µM, 7x7, partner max 10 µM); 0.0121
CS(=O)(=O)CCNCc1ccc(-c2ccc3ncnc(Nc4ccc(OCc5cccc(F)c5)c(Cl)c4)c3c2)o1 [Lapatinib] + Cn1cnc2c(F)c(Nc3ccc(Br)cc3Cl)c(C(=O)NOCCO)cc21 [Selumetinib] (first compound max 10 µM, 7x7, partner max 10 µM); -0.0161
CN(CCO)CC[C@H](CSc1ccccc1)Nc1ccc(S(=O)(=O)NC(=O)c2ccc(N3CCC([C@@H](O)c4ccccc4-c4ccc(Cl)cc4)CC3)cc2)cc1S(=O)(=O)C(F)(F)F [AZD4320] + CS(=O)(=O)CCNCc1ccc(-c2ccc3ncnc(Nc4ccc(OCc5cccc(F)c5)c(Cl)c4)c3c2)o1 [Lapatinib] (first compound max 1 µM, 7x7, partner max 10 µM); 0.0054
Cc1cc2ncnn2cc1Nc1ncc2c(n1)n(C1CCOCC1)c(=O)n2C [AZD7648] + C=CCn1c(=O)c2cnc(Nc3ccc(N4CCN(C)CC4)cc3)nc2n1-c1cccc(C(C)(C)O)n1 [AZD1775] (first compound max 10 µM, partner max 1 µM); -0.0642
CCN(CCO)CCCOc1ccc2c(Nc3cc(CC(=O)Nc4cccc(F)c4)[nH]n3)ncnc2c1 [AZD2811] + O=C(c1cc(Cc2n[nH]c(=O)c3ccccc23)ccc1F)N1CCN(C(=O)C2CC2)CC1 [Olaparib] (first compound max 1 µM, 7x7, partner max 10 µM); -0.0495

Summary for this compound, CC(=O)Nc1cccc(-n2c(=O)n(C3CC3)c(=O)c3c(Nc4ccc(I)cc4F)n(C)c(=O)c(C)c32)c1 [Trametinib] + Cc1nc(-c2cn3c(n2)-c2ccc(-c4cnn(C(C)(C)C(N)=O)c4)cc2OCC3)n(C(C)C)n1 [Taselisib] (first compound max 1 µM, 7x7, partner max 10 µM) : Bliss excess is -0.0203

Documented Bliss excess of CN(CCO)CC[C@H](CSc1ccccc1)Nc1ccc(S(=O)(=O)NC(=O)c2ccc(N3CCC([C@@H](O)c4ccccc4-c4ccc(Cl)cc4)CC3)cc2)cc1S(=O)(=O)C(F)(F)F [AZD4320] + C=CCn1c(=O)c2cnc(Nc3ccc(N4CCN(C)CC4)cc3)nc2n1-c1cccc(C(C)(C)O)n1 [AZD1775] (first compound max 1 µM, partner max 1 µM) : 0.0145

Lab note: CN(C)CCCOc1ccc(-c2ccc3ncc4c(c3c2)n(C2CCOCC2)c(=O)n4C)cn1 [AZD0156] + C=CCn1c(=O)c2cnc(Nc3ccc(N4CCN(C)CC4)cc3)nc2n1-c1cccc(C(C)(C)O)n1 [AZD1775] (first compound max 1 µM, partner max 1 µM) gave Bliss excess of -0.0479
